Measured values drawn from the supplement of paper PMC10126150 for this set.

# System: ATP;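 also: ATP exposure 15 min at 22 °C before imaging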
# METHOD_NOTES: switch fluorescence ratio, 500 uM ATP over buffer (Cy3 cluster intensity, sum of 5 cycles each) (fold (ratio)); higher = stronger signal-on switching upon ATP binding; sequences stand for … in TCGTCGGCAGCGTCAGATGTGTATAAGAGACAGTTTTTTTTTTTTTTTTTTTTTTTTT…TC
# CONDITION_CONTEXT: aptamer strand: ATP DNA aptamer (quencher-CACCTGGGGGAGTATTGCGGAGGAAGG + anchor), 100 nM annealed; ATP concentration: 500 uM
MEASURED_ENDPOINT: switch fluorescence ratio
Give the figure by itself; no unit, no explanation.

Notebook: `GATATGGCAC` , switch fluorescence ratio read as 1.05

The sequence listed as `TAGAAGTTTG` shows switch fluorescence ratio equal to 0.976

The measured switch fluorescence ratio associated with `CGATTATGTA` reads 0.967

Entry `CAGTAGGGAG` — recorded switch fluorescence ratio = 0.987

Consider `AACTGGGGAA` . Its measured switch fluorescence ratio is 0.973

Entry `AGGACTGTCT` ; switch fluorescence ratio = 0.986

Lab note: measured switch fluorescence ratio of `TTAATTATAT` was 1.02

Please fill in: switch fluorescence ratio reported for `CGCCGTCTCA` = 1.02

Looking up `AGTTTAAAAG` , I see its switch fluorescence ratio listed as 1.01

Record `CATGGCCAGG` . Reported switch fluorescence ratio: 1.06

For `GGATGGTAGT` the sequence record lists switch fluorescence ratio as 1.01

Form: sequence = `TTCGTTTACA` ; switch fluorescence ratio = 1.01

Quick note, switch fluorescence ratio for `AGATTGAATG` landed at 0.98

get_value(item= `ATCAAGCAGT` , readout=switch fluorescence ratio) returns 1.41

For this sequence ( `ATGAGGAAGT` ), measured switch fluorescence ratio is 0.987

Reported switch fluorescence ratio of `ACGGGAGTGC` : 1.03

Reported switch fluorescence ratio ( `ATGAGAGGTT` ) = 0.994

Recorded switch fluorescence ratio (sequence `TACTTTGCGG` ): 1.01

Input `CCGGAACATG` . Output switch fluorescence ratio: 1.23

Noted for `GTCGTATTAG` : its switch fluorescence ratio reads 0.995

// recorded switch fluorescence ratio for `CTAATTGTGT` : 0.993

Entry under test: `TAATTTGAAC` . Its switch fluorescence ratio was 1.02

Just so you know, measured switch fluorescence ratio for `CGTAAAATGA` came out at 0.992

Per the record, `CTGTACAAGC` has switch fluorescence ratio of 1.15

Input `ATGCGCACCG` . Output switch fluorescence ratio: 1.05

Looking up `TACATGGGTA` , I found its switch fluorescence ratio recorded as 0.958

The reported switch fluorescence ratio of the sequence `ATGTAGTTAT` was 0.996

The reported value for `TGGATACACT` in terms of switch fluorescence ratio is 1.04

Per the records, this sequence ( `CATAGCCGGT` ) has switch fluorescence ratio equal to 1.01

Reported switch fluorescence ratio of `GCACATGGCC` : 1.03

Lab book: switch fluorescence ratio of `CGGGAATTAG` noted as 1.01

// switch fluorescence ratio lookup, sequence = `GACCGGGTAA` , result: 1.02

For this sequence ( `GGGTGGTGTA` ), measured switch fluorescence ratio is 1.07

Field switch fluorescence ratio (entry `CCGCTTTTTT` ) reads 1.28

The reported value for `ATTTTAAGGC` in terms of switch fluorescence ratio is 1

// switch fluorescence ratio lookup, sequence = `TTTGGCGCAC` , result: 1.06

Lookup result for `GTGAGGGTTG` ; measured switch fluorescence ratio: 0.975

The sequence listed as `GGGAGATTGG` shows switch fluorescence ratio equal to 1.09

Looking up `CAAGCTTAGG` , I see its switch fluorescence ratio listed as 0.995

Data point: `AATTGCCAGA` ; switch fluorescence ratio = 1.02

# sequence `ATCTGGAGTT` ; its switch fluorescence ratio = 1.01

// recorded switch fluorescence ratio for `GTGTTTTGTT` : 0.986

According to the records, this sequence `GTTGATAGTA` displays switch fluorescence ratio of 0.993

Lookup result for `CGAAAAGTTG` ; measured switch fluorescence ratio: 1.01

get_value(item= `GATACTGAAC` , readout=switch fluorescence ratio) returns 1.3

Given item `GGCATTATTT` , the value recorded as its switch fluorescence ratio is 1.02

Value of switch fluorescence ratio reported for the sequence `GGTTAATTGT` is 0.993

Short answer for `GGTTGTGGGG` : switch fluorescence ratio was 0.998

// switch fluorescence ratio lookup, sequence = `GCAGTTGGGT` , result: 0.986

Query `AGATAATTTG` yields switch fluorescence ratio of 0.995

sequence `AAAATTATAT` , switch fluorescence ratio observed: 1.02

// switch fluorescence ratio value for `CGGGGGGTGG` : 1

Memo: `GGGTAACGAG` , reported switch fluorescence ratio: 1.01
